Molecular target: CYP2E1 (Homo sapiens)
Construct: tissue Corning Life Sciences; host or cells: pooled human liver microsomes, 150 donors
Sequence (P05181 whole entry): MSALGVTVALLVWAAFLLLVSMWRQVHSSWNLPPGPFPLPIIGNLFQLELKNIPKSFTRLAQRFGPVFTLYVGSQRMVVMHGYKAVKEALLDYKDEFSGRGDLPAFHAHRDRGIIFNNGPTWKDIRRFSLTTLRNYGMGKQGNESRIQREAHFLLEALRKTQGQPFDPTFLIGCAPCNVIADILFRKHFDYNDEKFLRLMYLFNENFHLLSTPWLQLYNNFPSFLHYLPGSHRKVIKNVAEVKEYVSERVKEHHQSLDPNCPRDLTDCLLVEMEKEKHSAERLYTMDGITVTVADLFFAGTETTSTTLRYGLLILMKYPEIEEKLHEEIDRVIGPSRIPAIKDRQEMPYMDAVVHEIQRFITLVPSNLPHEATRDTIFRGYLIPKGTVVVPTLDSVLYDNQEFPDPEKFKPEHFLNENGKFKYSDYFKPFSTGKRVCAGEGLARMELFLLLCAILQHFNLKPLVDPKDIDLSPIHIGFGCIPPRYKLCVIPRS
Experiment: Reversible CYP2E1 inhibition, cocktail assay (chlorzoxazone 6-hydroxylase) in human liver microsomes
Format: biochemical

{"Molecule": "CCN(CC)C(=S)S [Diethyldithiocarbamate, reference compound]", "IC50, µM": 12}

----------
Experiment: Unbound fraction in human plasma (rapid equilibrium dialysis)
Type: in vitro ADME
Conditions: human, human plasma; 10 and 50 μM; read-out: plasma protein binding, human

{"Mol Smiles": "CC(C)=CCc1cc([C@@H]2CC(=O)c3ccc(O)c(CC=C(C)C)c3O2)cc(CC=C(C)C)c1O", "fraction unbound at 4 h": "< 0.001"}

----------
Assay: in vivo
Details: male, Sprague-Dawley, rat, po, 2 mg/kg, AUCt

{"Compound": "O=C(O)Cc1ccccc1Nc1c(Cl)cccc1Cl [Diclofenac]", "AUC(0-t) [ng·h/mL]": 1060}

----------
Target: CYP2B6 (Homo sapiens, UniProt P20813)
Sequence (P20813 1-491): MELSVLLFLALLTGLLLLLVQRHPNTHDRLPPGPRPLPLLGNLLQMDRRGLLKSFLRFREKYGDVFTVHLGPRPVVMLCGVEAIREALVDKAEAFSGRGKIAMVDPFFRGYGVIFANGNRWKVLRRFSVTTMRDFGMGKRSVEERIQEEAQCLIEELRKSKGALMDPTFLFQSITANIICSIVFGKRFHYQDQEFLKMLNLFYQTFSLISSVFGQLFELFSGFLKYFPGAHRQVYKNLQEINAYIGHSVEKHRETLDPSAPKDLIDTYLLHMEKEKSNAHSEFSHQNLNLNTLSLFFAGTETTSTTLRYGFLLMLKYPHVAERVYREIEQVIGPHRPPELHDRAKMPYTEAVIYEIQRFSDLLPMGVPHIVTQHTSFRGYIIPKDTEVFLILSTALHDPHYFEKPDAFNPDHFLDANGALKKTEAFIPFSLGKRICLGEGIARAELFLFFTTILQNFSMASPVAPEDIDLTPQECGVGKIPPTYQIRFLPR

{"Mol Smiles": "CC(C)=CCc1cc([C@@H]2CC(=O)c3ccc(O)c(CC=C(C)C)c3O2)cc(CC=C(C)C)c1O", "IC50": "> 50 µM"}

----------
Molecular target: CYP3A4 (Homo sapiens, UniProt P08684)
Construct: tissue Corning Life Sciences; host or cells: pooled human liver microsomes, 150 donors
Sequence (P08684 whole entry): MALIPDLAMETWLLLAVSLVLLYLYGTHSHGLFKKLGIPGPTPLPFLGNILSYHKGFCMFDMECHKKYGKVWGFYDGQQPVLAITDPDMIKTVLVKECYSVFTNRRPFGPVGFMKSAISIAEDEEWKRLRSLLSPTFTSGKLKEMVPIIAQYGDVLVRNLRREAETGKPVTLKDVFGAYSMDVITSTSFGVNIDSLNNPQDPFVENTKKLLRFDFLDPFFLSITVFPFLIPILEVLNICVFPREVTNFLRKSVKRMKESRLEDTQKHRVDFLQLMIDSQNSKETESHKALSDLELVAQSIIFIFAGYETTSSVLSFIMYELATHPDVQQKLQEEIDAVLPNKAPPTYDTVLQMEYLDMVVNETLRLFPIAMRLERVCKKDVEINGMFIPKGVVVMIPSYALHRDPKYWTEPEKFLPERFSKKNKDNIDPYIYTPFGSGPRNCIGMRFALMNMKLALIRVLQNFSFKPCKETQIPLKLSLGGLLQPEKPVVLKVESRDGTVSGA
Assay: Reversible CYP3A4 inhibition, cocktail assay (midazolam 1′-hydroxylase) in human liver microsomes
Assay type: biochemical
Conditions: human liver microsomes 0.1 mg/mL, cocktail assay, midazolam probe, n = 3
pIC50: −log10 of the molar value.

{"Mol Smiles": "CC(C)=CCc1cc([C@@H]2CC(=O)c3ccc(O)c(CC=C(C)C)c3O2)cc(CC=C(C)C)c1O", "Target System": "CYP3A4 (Homo sapiens, UniProt P08684)", "pIC50": "< 4.30"}

----------
Assay: Effects of SPN on the pharmacokinetics of diclofenac in rats
Details: male, Sprague-Dawley, rat, plasma, po, 2 mg/kg, AUCt, rats, oral diclofenac 2 mg/kg, without SPN, n = 6
Value Type: AUC(0-t) (ng·h/mL)

{"Compound": "O=C(O)Cc1ccccc1Nc1c(Cl)cc(O)cc1Cl [4′-hydroxydiclofenac]", "Value Type": "AUC(0-t)", "Endpoint Result": 747}

----------
Assay: Effects of SPN on the pharmacokinetics of diclofenac in rats
Settings: male, Sprague-Dawley, rat, plasma, po, 2 mg/kg, t1/2, rats, oral diclofenac 2 mg/kg, without SPN, n = 6

{"Compound": "O=C(O)Cc1ccccc1Nc1c(Cl)cc(O)cc1Cl [4′-hydroxydiclofenac]", "Scale Unit": "h", "half-life": 4.63}
